# target under test: EGFR(L861Q) (Homo sapiens, UniProt P00533, L861Q)
# Construct: purchased Eurofins DiscoverX KINOMEscan (scanTK)
# Sequence (P00533 25-1210 L861Q): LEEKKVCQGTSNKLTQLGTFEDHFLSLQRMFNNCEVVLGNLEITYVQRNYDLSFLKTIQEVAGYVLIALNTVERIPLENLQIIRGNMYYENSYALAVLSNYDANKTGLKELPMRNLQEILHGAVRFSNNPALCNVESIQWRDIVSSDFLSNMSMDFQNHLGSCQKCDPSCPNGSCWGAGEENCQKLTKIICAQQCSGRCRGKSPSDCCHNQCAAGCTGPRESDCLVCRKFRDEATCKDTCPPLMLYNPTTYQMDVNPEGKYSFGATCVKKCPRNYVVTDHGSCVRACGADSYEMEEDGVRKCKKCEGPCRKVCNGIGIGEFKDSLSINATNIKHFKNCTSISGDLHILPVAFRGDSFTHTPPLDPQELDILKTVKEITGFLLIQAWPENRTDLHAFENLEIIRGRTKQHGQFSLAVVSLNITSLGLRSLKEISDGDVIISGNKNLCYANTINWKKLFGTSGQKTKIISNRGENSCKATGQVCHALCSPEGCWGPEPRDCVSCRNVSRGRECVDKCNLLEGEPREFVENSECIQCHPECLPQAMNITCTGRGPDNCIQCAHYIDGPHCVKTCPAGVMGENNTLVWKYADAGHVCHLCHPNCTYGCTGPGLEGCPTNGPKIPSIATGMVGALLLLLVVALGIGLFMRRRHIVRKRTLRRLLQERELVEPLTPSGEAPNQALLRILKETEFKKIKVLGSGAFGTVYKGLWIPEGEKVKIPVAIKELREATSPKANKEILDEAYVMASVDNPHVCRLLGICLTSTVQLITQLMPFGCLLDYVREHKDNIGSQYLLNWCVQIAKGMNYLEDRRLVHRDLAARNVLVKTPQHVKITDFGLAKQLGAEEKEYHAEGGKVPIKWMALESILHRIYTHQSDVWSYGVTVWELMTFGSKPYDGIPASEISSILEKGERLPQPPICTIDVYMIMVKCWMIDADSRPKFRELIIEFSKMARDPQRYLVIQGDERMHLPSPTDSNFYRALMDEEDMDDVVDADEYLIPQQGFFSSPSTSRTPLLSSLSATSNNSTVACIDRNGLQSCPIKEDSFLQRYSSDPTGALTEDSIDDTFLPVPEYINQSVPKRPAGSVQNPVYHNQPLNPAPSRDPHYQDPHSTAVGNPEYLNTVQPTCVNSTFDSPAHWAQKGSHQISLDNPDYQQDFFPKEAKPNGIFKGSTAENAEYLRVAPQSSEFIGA
# procedure details: KINOMEscan ScanTK
# Assay type: binding
# experimental conditions: @1000nM
value kind: difference in % of control versus compound Ib at 1 µM (%)

These solved cases illustrate the format of a correct answer.
- compound: "CCOC(=O)c1cnc(S(C)(=O)=O)nc1N1CCC[C@@H](n2nc(-c3ccc(Oc4ccccc4)cc3)c3c(N)ncnc32)C1"
  target under test: "EGFR(L861Q) (Homo sapiens, UniProt P00533, L861Q)"
  readout value: 81.2
- compound: "CNC(=O)c1cnc(S(C)(=O)=O)nc1N1CCCC(n2nc(-c3ccc(Oc4ccccc4)cc3)c3c(N)ncnc32)C1 (stereo not shown)"
  target under test: "EGFR(L861Q) (Homo sapiens, UniProt P00533, L861Q)"
  readout value: 28.2

[A] Cc1cnc(S(C)(=O)=O)nc1N1CCCC(n2nc(-c3ccc(Oc4ccccc4)cc3)c3c(N)ncnc32)C1 (stereo not shown)
[B] COC(=O)c1cnc(S(C)(=O)=O)nc1N1CCCC(n2nc(-c3ccc(Oc4ccccc4)cc3)c3c(N)ncnc32)C1 (stereo not shown)
Please indicate which entry, A or B , has the lower recorded difference in % of control versus compound Ib at 1 µM value. Use the label to indicate which entry you chose.
B
(B: 56.2%, A: 81.2%)
